Entry source: the supplement of paper PMC8728848

system: Gal(b1-4)GlcNAc(b1-2)Man(a1-3)Man(b1-4)GlcNAc(b1-4)GlcNAc
measurement notes: glycan array binding signal (z-score within array); higher = stronger binding
reported conditions: glycan notation: IUPAC condensed, linker removed
Many of the other results were omitted from the sample, so the strongest signals are more common in it than they were.
metric: glycan array binding signal (z-score)

A selection of reference data follows.
GALT1 615 (Arabidopsis thaliana), Q8L7F9 (protein) DPMRGSHHHHHHGMASMTGGQQMGRDLYDDDDKSRLQKPYITAAASVVVTPNTTLPMEWLRITLPDFMKEARNTQEAISGDDIAVVSGLFVEQNVSKEEREPLLTWNRLESLVDNAQSLVNGVDAIKEAGIVWESLVSAVEAKKLVDVNENQTRKGKEELCPQFLSKMNATEADGSSLKLQIPCGLTQGSSITVIGIPDGLVGSFRIDLTGQPLPGEPDPPIIVHYNVRLLGDKSTEDPVIVQNSWTASQDWGAEERCPKFDPDMNKKVDDLDECNKMVGGEINRTSSTSLQSNTSRGVPVAREASKHEKYFPFKQGFLSVATLRVGTEGMQMTVDGKHITSFAFRDTLEPWLVSEIRITGDFRLISILA
-0.484
Arath Fbox (Arabidopsis thaliana), NP_178341.1 (protein) EFTWGRKRRVKSESSPFDSFPEDCISYIISFTNPRDACVAATVSKTFESTVKSDIIWEKFLPADYESLIPPSRVFSSKKELYFSLCNDPVLFDDDKKSVWLEKASGKRCLMLSAMNLSIIWGDNPQYWQWIPIPESRFEKVAKLRDVCWFEIRGRTNTRVLSPRTRYSAYIVFKGVDKCYGFQNVAIEAAVGVVGQEPSRRLICFSEAIRRGRRNVVKPKQREDGWMEIELGEFFNDGGIMDNDEIEMSALETKQLNRKCGLIIQGIEIRPAKILAAAAASFLEQKLISEEDLNSAVDHHHHHH
-0.673
FGFR2-Fc (protein) MVNVTDAISSGDDEDDTDGAEDFVSENSNNKRAPYWTNTEKMEKRLHAVPAANTVKFRCPAGGNPMPTMRWLKNGKEFKQEHRIGGYKVRNQHWSLIMESVVPSDKGNYTCVVENEYGSINHTYHLDVVERSPHRPILQAGLPANASTVVGGDVEFVCKVYSDAQPHIQWIKHVEKNGSKYGPDGLPYLKVLKHSGINSSNAEVLALFNVTEADAGEYICKVSNYIGQANQSAWLTVLPKQQAPGREKEITASPDYLETRPLEQKLISEEDLAANDILDYKDDDDKV
-0.054

Read the next record carefully.
Could you tell me which glycan array binding signal (z-score) is on file for Drgal1 (Danio rerio) (protein) MAGVLIQNMSFKVGQTLTITGVPKPDSTNFAINIGHSPEDIALHMNPRFDAHGDQCTIVCNSFQSGSWCEEHRDDNFPFIQDKEFQIKITFTNEEFLVTLPDGSEIHFPNRQGSEKYKYMYFEGEVRIQGVEIK ?
0.231
